- Test system: sicklepod (Cassia obtusifolia, CASOB)
- protocol: Pre-emerge test, greenhouse herbicide activity screening
- Format: in vivo
- details: pre-emerge, rate 250 g ai/ha, phytotoxicity rating 0-100 at 14 days after application
metric_name: Pre-emerge Herbicidal Activity CASOB

| molecule | Pre-emerge Herbicidal Activity CASOB |
| --- | --- |
| Cc1nn(-c2c(F)cc(Cl)cc2NC(=O)c2ccc(F)cc2F)c(=O)n1C(F)F [Compound 6-23] | 10 |

Entry COc1c(Cl)cc(F)c(-n2ncc(C(F)(F)F)cc2=O)c1NC(=O)c1ccc2ccccc2c1 [Compound 11-6] has what Pre-emerge Herbicidal Activity CASOB?
99

Returns the measured Pre-emerge Herbicidal Activity CASOB for the input molecule. Input: CCC(=O)Nc1c(Cl)cc(Cl)c(-n2nc(C)n(C(F)F)c2=O)c1N [Compound 6-19]
0

What does the data say about its Pre-emerge Herbicidal Activity CASOB? Entry: COc1c(Cl)cc(F)c(-n2c(=O)n3n(c2=O)CCCC3)c1N [9-4]
60

Which Pre-emerge Herbicidal Activity CASOB is listed for COc1c(Cl)cc(F)c(N2C(=O)C3=C(CCCC3)C2=O)c1N [8-7] ?
0

Fill in: Pre-emerge Herbicidal Activity CASOB of Cc1nn(-c2c(Cl)cc(Cl)cc2NC(=O)c2ccc(F)cc2F)c(=O)n1C(F)F [Compound 6-13] is ___
0

Would you kindly share the measured Pre-emerge Herbicidal Activity CASOB for O=C(Nc1cc(Cl)ccc1-n1c(=O)n2n(c1=O)CCCC2)c1ccc2ccccc2c1 [9-19] ?
20

* * *

- System: field corn (Zea mays L., var. Dekalb 535, CORN)
- protocol: Post-emerge test, crop safety
- Type: in vivo
- details: post-emerge, 63 g ai/ha, 14 days after application, rating scale 0-100
- Description: A standard greenhouse herbicide activity screening system was used to evaluate the herbicidal efficacy and crop safety of these test compounds. […] At 14 days after application of the test materials, phytotoxicity ratings were recorded. […]
Below, each entry is listed with its recorded CORN phytotoxicity rating (crop damage).

What value of measured CORN phytotoxicity rating (crop damage) is listed for COc1c(Cl)cc(F)c(-n2c(=O)cc(C(F)(F)F)n(C)c2=O)c1NC(=O)c1cc2ccccc2cc1C [2-155] ?
70

* * *

- System: lambsquarters (Chenopodium album, CHEAL)
- protocol: Pre-emerge test, greenhouse herbicide activity screening
- Format: in vivo
- details: pre-emerge, 250 g ai/ha, 14 days after application, scale 0-100
metric_name: phytotoxicity rating CHEAL
// no unit, no text: just the number

Which measured phytotoxicity rating CHEAL value corresponds to `C=Cc1ccc(C(=O)N(C(=O)c2ccc(C=C)cc2)c2c(OC)c(Br)cc(F)c2-n2c(=O)cc(C(F)(F)F)n(C)c2=O)cc1` ?
40

* * *

- Tested on: upland rice (Oryza sp., var. Tebonnet, RICE)
- protocol: Post-emerge test, crop safety
- Assay type: in vivo
- details: post-emerge, 63 g ai/ha, crop damage rating 0-100 at 14 days after application
Use TRUE when the recorded Post-emerge Herbicidal Activity RICE is no lower than 20; use FALSE when it is lower.

| structure_string | target_of_assay | group_label |
| --- | --- | --- |
| Cc1nn(-c2c(F)cc(Cl)cc2NC(=O)c2ccc(F)cc2F)c(=O)n1C(F)F | upland rice (Oryza sp., var. Tebonnet, RICE) | FALSE |
| Cc1c(Cl)cc(F)c(-n2c(=O)cc(C(F)(F)F)n(C)c2=O)c1NC(=O)OCc1ccc([N+](=O)[O-])cc1 | upland rice (Oryza sp., var. Tebonnet, RICE) | FALSE |
| Nc1c(OC2CCCC2)c(Cl)cc(F)c1N1C(=O)C2=C(CCCC2)C1=O | upland rice (Oryza sp., var. Tebonnet, RICE) | TRUE |
| COc1c(Cl)cc(F)c(-n2nnn(CCCF)c2=O)c1NC(=O)c1ccc2ccccc2c1 | upland rice (Oryza sp., var. Tebonnet, RICE) | TRUE |
| C=Cc1ccc(C(=O)Nc2c(OC)c(Cl)cc(F)c2N2C(=O)C3=C(CCCC3)C2=O)cc1 | upland rice (Oryza sp., var. Tebonnet, RICE) | TRUE |
| Cc1cc(C)c(COC(=O)Nc2c(C)c(Cl)cc(F)c2-n2c(=O)cc(C(F)(F)F)n(C)c2=O)c(C)c1 | upland rice (Oryza sp., var. Tebonnet, RICE) | FALSE |

Given the entry `COc1c(Cl)cc(F)c(-n2ncc(C(F)(F)F)c(C)c2=O)c1NC(=O)c1ccc2ccccc2c1` , answer whether its Post-emerge Herbicidal Activity RICE meets or surpasses 20.
TRUE
